# TGT: Adenosine receptor A1 (Homo sapiens, UniProt P30542)
# Sequence (P30542 whole entry): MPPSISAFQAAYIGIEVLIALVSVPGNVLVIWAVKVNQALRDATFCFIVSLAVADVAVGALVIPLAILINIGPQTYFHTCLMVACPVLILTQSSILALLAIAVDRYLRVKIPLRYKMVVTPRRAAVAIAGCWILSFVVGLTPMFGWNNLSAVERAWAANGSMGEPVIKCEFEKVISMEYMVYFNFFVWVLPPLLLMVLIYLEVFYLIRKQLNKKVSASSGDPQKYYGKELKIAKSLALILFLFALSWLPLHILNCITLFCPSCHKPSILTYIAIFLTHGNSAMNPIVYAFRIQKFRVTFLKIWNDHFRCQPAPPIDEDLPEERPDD
# ASSAY TEXT: Binding affinity to wild type A1R (unknown origin) expressed in CHO-K1 cells assessed as equilibrium binding affinity constant by nanoBRET assay
Measured pKi, listed per entry for reference.
Please keep in mind that pKi is minus log10 of the molar concentration; only the number is needed.

Take a look at these entries with their results.
[
  {
    "SAMPLE SMILES": "COc1cc(Nc2nc(C#N)cc3c(-c4ccccc4)n[nH]c23)cc(OC)c1OC",
    "READOUT VALUE": 8.36
  },
  {
    "SAMPLE SMILES": "COc1cc(Nc2nc(CN)cc3c(-c4ccccc4)n[nH]c23)cc(OC)c1OC",
    "READOUT VALUE": 7.64
  },
  {
    "SAMPLE SMILES": "Cn1nc(NC(=O)CNc2ccccc2)c2cc(Nc3ccccc3)ncc21",
    "READOUT VALUE": 6.53
  }
]

Lab note: next compound to report on.
State, for Adenosine receptor A1 (Homo sapiens, UniProt P30542), measured pKi of the compound listed here: N#Cc1cc2c(-c3ccccc3)n[nH]c2c(Nc2ccccc2)n1
6.67

---

# TGT: Adenosine receptor A3 (Homo sapiens, UniProt P0DMS8)
# Sequence (P0DMS8 whole entry): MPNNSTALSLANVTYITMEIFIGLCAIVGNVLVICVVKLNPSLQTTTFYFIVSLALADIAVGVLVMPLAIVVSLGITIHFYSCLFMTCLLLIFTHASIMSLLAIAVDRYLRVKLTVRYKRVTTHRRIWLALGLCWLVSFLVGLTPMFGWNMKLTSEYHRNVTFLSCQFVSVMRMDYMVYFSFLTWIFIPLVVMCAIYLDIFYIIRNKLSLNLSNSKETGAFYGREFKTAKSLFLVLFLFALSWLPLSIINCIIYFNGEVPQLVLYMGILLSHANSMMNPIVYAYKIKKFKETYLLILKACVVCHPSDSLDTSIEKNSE
# ASSAY TEXT: Antagonist activity at wild type A3R (unknown origin) expressed in Flp-In-CHO cells assessed as inhibition of NECA reduced forskolin stimulated cAMP accumulation incubated for 30 mins
Attribute: IC50
State just the number; it will be interpreted in nM.

[
  {
    "SAMPLE SMILES": "COc1cc(Nc2nccc3c(-c4ccccc4)n[nH]c23)cc(OC)c1OC",
    "ENDPOINT UNIT": "nM",
    "IC50": 5.13
  },
  {
    "SAMPLE SMILES": "Cn1nc(NC(=O)Nc2ccccc2)c2ccnc(NC3CCCCC3)c21",
    "ENDPOINT UNIT": "nM",
    "IC50": 4.27
  },
  {
    "SAMPLE SMILES": "Cn1nc(NC(=O)c2ccccc2)c2cc(Nc3ccccc3)ncc21",
    "ENDPOINT UNIT": "nM",
    "IC50": 6.76
  },
  {
    "SAMPLE SMILES": "O=C(CNc1ccccc1)Nc1n[nH]c2cnc(Nc3ccccc3)cc12",
    "ENDPOINT UNIT": "nM",
    "IC50": 3.02
  }
]

# evaluate next
Report IC50 for COc1cc(Nc2nc(CNCc3ccccc3)cc3c(-c4ccccc4)n[nH]c23)cc(OC)c1OC
7.24

---

# TGT: UniProt P30542
# ASSAY TEXT: Binding affinity to wild type A1R (unknown origin) expressed in CHO-K1 cells assessed as equilibrium binding affinity constant by nanoBRET assay
MEASUREMENT TYPE: Ki (nM)
State the answer as a number, implicitly in nM.

These solved cases illustrate the format of a correct answer.
[
  {
    "SAMPLE SMILES": "COc1cc(Nc2nc(C#N)cc3cn[nH]c23)cc(OC)c1OC",
    "Ki, nM": 229
  },
  {
    "SAMPLE SMILES": "Cn1nc(NC(=O)Nc2ccccc2)c2ccnc(NC3CCCCC3)c21",
    "Ki, nM": 1000
  },
  {
    "SAMPLE SMILES": "O=C(CNc1ccccc1)Nc1n[nH]c2cnc(Nc3ccccc3)cc12",
    "Ki, nM": 363
  },
  {
    "SAMPLE SMILES": "COc1cc(Nc2nc(CNCc3ccccc3)cc3c(-c4ccccc4)n[nH]c23)cc(OC)c1OC",
    "Ki, nM": 204
  }
]

Write down Ki measured for item COc1cc(Nc2nc(Cl)cc3c(C(C)C)n[nH]c23)cc(OC)c1OC
288

---

# TGT: Adenosine receptor A3 (Homo sapiens, UniProt P0DMS8)
# ASSAY TEXT: Antagonist activity at wild type A3R (unknown origin) expressed in Flp-In-CHO cells assessed as inhibition of NECA reduced forskolin stimulated cAMP accumulation incubated for 30 mins
Quick reference: pIC50 of the listed items.
# pIC50 is unitless: minus log10 of the molar concentration; print number only

Here is how some compounds turned out for pIC50.
[
  {
    "SAMPLE SMILES": "COc1cc(Nc2nc(Cl)cc3c(C(C)C)n[nH]c23)cc(OC)c1OC",
    "pIC50": 8.55
  },
  {
    "SAMPLE SMILES": "N#Cc1cc2c(-c3ccccc3)n[nH]c2c(Nc2ccccc2)n1",
    "pIC50": 7.22
  },
  {
    "SAMPLE SMILES": "COc1cc(Nc2nc(CN)cc3c(-c4ccccc4)n[nH]c23)cc(OC)c1OC",
    "pIC50": 8.31
  },
  {
    "SAMPLE SMILES": "COc1cc(Nc2nc(Cl)cc3c(-c4ccccc4)n[nH]c23)cc(OC)c1OC",
    "pIC50": 7.91
  }
]

Turning to the following compound.
Give a short answer stating reported pIC50 for COc1cc(Nc2nc(C#N)cc3c(C(C)C)n[nH]c23)cc(OC)c1OC .
8.42

---

Measured pIC50 of individual entries
# TGT: Adenosine receptor A1 (Homo sapiens, UniProt P30542)
# ASSAY TEXT: Antagonist activity at wild type A1R (unknown origin) expressed in CHO-K1 cells assessed as inhibition of NECA reduced forskolin stimulated cAMP accumulation incubated for 30 mins
For clarity, pIC50 is expressed as the negative log10 of concentration in mol/L.

Guide cases for pIC50, answers given:
[
  {
    "SAMPLE SMILES": "COc1cc(Nc2nc(CN)cc3c(-c4ccccc4)n[nH]c23)cc(OC)c1OC",
    "TGT": "Adenosine receptor A1 (Homo sapiens, UniProt P30542)",
    "pIC50": 7.64
  },
  {
    "SAMPLE SMILES": "N#Cc1cc2c(-c3ccccc3)n[nH]c2c(Nc2ccccc2)n1",
    "TGT": "Adenosine receptor A1 (Homo sapiens, UniProt P30542)",
    "pIC50": 7.87
  },
  {
    "SAMPLE SMILES": "COc1cc(Nc2nc(C#N)cc3c(-c4ccccc4)n[nH]c23)cc(OC)c1OC",
    "TGT": "Adenosine receptor A1 (Homo sapiens, UniProt P30542)",
    "pIC50": 6.70
  },
  {
    "SAMPLE SMILES": "Cn1nc(NC(=O)Nc2ccccc2)c2ccnc(NC3CCCCC3)c21",
    "TGT": "Adenosine receptor A1 (Homo sapiens, UniProt P30542)",
    "pIC50": 8.85
  },
  {
    "SAMPLE SMILES": "Cn1nc(NC(=O)CNc2ccccc2)c2cc(Nc3ccccc3)ncc21",
    "TGT": "Adenosine receptor A1 (Homo sapiens, UniProt P30542)",
    "pIC50": 8.58
  },
  {
    "SAMPLE SMILES": "COc1cc(Nc2nc(C#N)cc3cn[nH]c23)cc(OC)c1OC",
    "TGT": "Adenosine receptor A1 (Homo sapiens, UniProt P30542)",
    "pIC50": 7.99
  },
  {
    "SAMPLE SMILES": "Cn1nc(NC(=O)c2ccccc2)c2cc(Nc3ccccc3)ncc21",
    "TGT": "Adenosine receptor A1 (Homo sapiens, UniProt P30542)",
    "pIC50": 8.30
  },
  {
    "SAMPLE SMILES": "COc1cc(Nc2nc(CNCc3ccccc3)cc3c(-c4ccccc4)n[nH]c23)cc(OC)c1OC",
    "TGT": "Adenosine receptor A1 (Homo sapiens, UniProt P30542)",
    "pIC50": 8.41
  },
  {
    "SAMPLE SMILES": "COc1cc(Nc2nc(Cl)cc3c(C(C)C)n[nH]c23)cc(OC)c1OC",
    "TGT": "Adenosine receptor A1 (Homo sapiens, UniProt P30542)",
    "pIC50": 8.30
  }
]

Now, please, on to the next compound.
Specify measured pIC50 for O=C(CNc1ccccc1)Nc1n[nH]c2cnc(Nc3ccccc3)cc12 .
8.16
